pKi: −log10 of the molar value.
Literature compilation of pKi measurements on Prothrombin (Homo sapiens, UniProt P00734).
measurement kind: pKi

Input: // returns reported pKi for input `Cc1nc(N)ccc1CNC(=O)Cn1c(C(F)(F)F)ccc(NS(=O)(=O)Cc2ccccc2)c1=O`
Output: 7.92

Input: // returns reported pKi for input CCCNS(=O)(=O)c1ccccc1-c1ccc(NC(=O)C2(Cn3cnnn3)CC(c3cccc(C(=N)N)c3)=NO2)cc1 (stereo not drawn)
Output: 7.15

P: O=C(Cn1ccnc(NCC(F)(F)c2ccccn2)c1=O)NCc1ccccc1-n1cnnn1
Q: N=C(N)NCCCC(NC(=O)[C@@H]1CC[C@H]2CN(C(=O)[C@@H](O)Cc3ccccc3)CC(=O)N21)C(=O)c1nccs1 (stereo partly drawn)
Input: I'm curious whether P or Q has the smaller pKi number. Which is it? Reply with the label of the item you choose.
Output: Q
(Q: 8.36, P: 8.57)
